# PROTOCOL_DETAILS: Single dose pharmacokinetics in mice
# Type: in vivo, mouse
# EXPERIMENTAL_PARAMETERS: female, heterozygous Foxn1nu/Foxn1+, mouse, liver, iv, 4 mg/kg, Cmax, mice, IV 4 mg/kg in 10% Solutol HS, liver
ATTRIBUTE_MEASURED: Cmax

molecule="COc1ccc(C2=Nn3c(nnc3-c3cc(-c4ccc(Cl)cc4)n[nH]3)SC2C)cc1 (stereo not shown)" observed_value="2780 ng/mL"

====

# PROTOCOL_DETAILS: Single dose pharmacokinetics in mice
# Format: in vivo, mouse
# EXPERIMENTAL_PARAMETERS: female, heterozygous Foxn1nu/Foxn1+, mouse, plasma, iv, 4 mg/kg
ATTRIBUTE_MEASURED: AUC(0-t) (ng·h/mL)

compound="COc1ccc(C2=Nn3c(nnc3-c3cc(-c4ccc(Cl)cc4)n[nH]3)SC2C)cc1 (stereo not shown) [UPCDC-10205]" attribute_measured=AUC(0-t) units_text=ng·h/mL observed_value=1020
